assayed.target: PDGFRβ (Homo sapiens, UniProt P09619)
Construct: purchased Promega
Sequence (P09619 33-1106): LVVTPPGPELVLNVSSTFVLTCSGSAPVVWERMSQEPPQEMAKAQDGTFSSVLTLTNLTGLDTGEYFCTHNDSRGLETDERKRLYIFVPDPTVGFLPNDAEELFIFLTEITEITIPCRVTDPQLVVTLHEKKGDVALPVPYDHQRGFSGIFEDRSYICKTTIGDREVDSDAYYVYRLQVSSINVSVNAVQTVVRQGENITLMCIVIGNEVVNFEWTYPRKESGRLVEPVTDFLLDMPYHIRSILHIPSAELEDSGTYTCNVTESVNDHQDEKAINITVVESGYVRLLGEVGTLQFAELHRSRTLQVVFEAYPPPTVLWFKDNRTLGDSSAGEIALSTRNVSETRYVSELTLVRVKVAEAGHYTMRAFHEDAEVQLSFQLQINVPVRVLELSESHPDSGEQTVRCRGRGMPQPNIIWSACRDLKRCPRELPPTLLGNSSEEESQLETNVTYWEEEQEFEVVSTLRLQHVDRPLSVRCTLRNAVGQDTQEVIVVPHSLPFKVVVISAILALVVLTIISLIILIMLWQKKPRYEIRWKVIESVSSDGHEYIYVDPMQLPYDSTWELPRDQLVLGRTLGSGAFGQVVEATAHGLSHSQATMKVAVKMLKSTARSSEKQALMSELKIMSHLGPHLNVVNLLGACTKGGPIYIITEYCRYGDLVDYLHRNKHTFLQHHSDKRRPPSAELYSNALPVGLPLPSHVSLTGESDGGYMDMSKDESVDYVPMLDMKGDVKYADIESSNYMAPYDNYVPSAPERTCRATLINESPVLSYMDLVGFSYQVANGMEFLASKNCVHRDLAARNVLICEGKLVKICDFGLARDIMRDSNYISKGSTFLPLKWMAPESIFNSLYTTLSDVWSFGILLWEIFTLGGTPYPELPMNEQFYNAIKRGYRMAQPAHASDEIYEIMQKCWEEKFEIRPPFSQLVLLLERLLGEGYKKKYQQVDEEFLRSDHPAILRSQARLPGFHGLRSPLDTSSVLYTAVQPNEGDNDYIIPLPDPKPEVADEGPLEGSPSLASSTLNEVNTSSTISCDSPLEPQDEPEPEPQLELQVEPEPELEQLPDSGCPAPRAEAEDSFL
assay.summary: Kinase Selectivity Profiling System TK-1 / ADP-Glo, PDGFRβ
Format: biochemical
Measured inhibition at 1 µM accompanies every entry in the list below.
Quick reminder: number only, in %, skip the unit.

Consider the worked cases shown below.
*Q* # lookup: inhibition at 1 µM of Cc1cn(-c2cc(NC(=O)c3ccc(Cn4cnc5c(Cl)nc(Cl)nc54)cc3)cc(C(F)(F)F)c2)cn1 [Compound 10]
*A* 39

*Q* # lookup: inhibition at 1 µM of COc1nc(Cl)nc2c1ncn2Cc1ccc(C(=O)Nc2cccc(C(F)(F)F)c2)cc1 [Compound 13]
*A* 17

*Q* # lookup: inhibition at 1 µM of Nc1nc(F)nc2c1ncn2Cc1ccc(C(=O)Nc2cccc(C(F)(F)F)c2)cc1 [Compound 8]
*A* 32

Next:
*Q* # lookup: inhibition at 1 µM of Cc1cn(-c2cc(NC(=O)c3ccc(Cn4cnc5c(N)ncnc54)cc3)cc(C(F)(F)F)c2)cn1 [Compound 12]
*A* 36

*Q* # lookup: inhibition at 1 µM of Nc1nc(Cl)nc2c1ncn2Cc1ccc(C(=O)Nc2cccc(C(F)(F)F)c2)cc1 [Compound 15]
*A* 33

*Q* # lookup: inhibition at 1 µM of CS(=O)(=O)CCNCc1ccc(-c2ccc3ncnc(Nc4ccc(OCc5cccc(F)c5)c(Cl)c4)c3c2)o1 [Lapatinib, lapatinib, reference compound]
*A* 7

====

assayed.target: PDGFRα (Homo sapiens)
Construct: purchased Promega
assay.summary: Kinase Selectivity Profiling System TK-1 / ADP-Glo, PDGFRα
Format: biochemical
Protocol: Considering the presence of a purine ring in the compounds under study, type 1 binding to protein kinases could be expected. […] Kinase activity was measured by quantifying the […] following a kinase reaction. Enzymatic activity inhibition percentage caused by studied compounds was evaluated at the single concentration of 1 μM. […]
quantity.name: inhibition at 1 µM (%)
Quick reminder: number only, in %, skip the unit.

Consider the worked cases shown below.
*Q* # lookup: inhibition at 1 µM of `Cc1cn(-c2cc(NC(=O)c3ccc(Cn4cnc5c(N)nc(F)nc54)cc3)cc(C(F)(F)F)c2)cn1`
*A* 4

*Q* # lookup: inhibition at 1 µM of `Nc1ncnc2c1ncn2Cc1ccc(C(=O)Nc2cccc(C(F)(F)F)c2)cc1`
*A* 45

*Q* # lookup: inhibition at 1 µM of `Cc1cn(-c2cc(NC(=O)c3ccc(Cn4cnc5c(N)nc(Cl)nc54)cc3)cc(C(F)(F)F)c2)cn1`
*A* 17

*Q* # lookup: inhibition at 1 µM of `COc1nc(Cl)nc2c1ncn2Cc1ccc(C(=O)Nc2cc(-n3cnc(C)c3)cc(C(F)(F)F)c2)cc1`
*A* 16

*Q* # lookup: inhibition at 1 µM of `COc1nc(Cl)nc2c1ncn2Cc1ccc(C(=O)Nc2cccc(C(F)(F)F)c2)cc1`
*A* 10

Next:
*Q* # lookup: inhibition at 1 µM of `Cc1cn(-c2cc(NC(=O)c3ccc(Cn4cnc5c(Cl)nc(Cl)nc54)cc3)cc(C(F)(F)F)c2)cn1`
*A* 37

*Q* # lookup: inhibition at 1 µM of CNC(=O)c1cc(Oc2ccc(NC(=O)Nc3ccc(Cl)c(C(F)(F)F)c3)cc2)ccn1 [Sorafenib, sorafenib, reference compound]
*A* 98

*Q* # lookup: inhibition at 1 µM of CS(=O)(=O)CCNCc1ccc(-c2ccc3ncnc(Nc4ccc(OCc5cccc(F)c5)c(Cl)c4)c3c2)o1 [Lapatinib, lapatinib, reference compound]
*A* 4

====

quantity.name: melting point

*Q* # lookup: melting point of `Nc1nc(Cl)nc2c1ncn2Cc1ccc(C(=O)Nc2cccc(C(F)(F)F)c2)cc1`
*A* 272 to 274 °C

Next:
*Q* # lookup: melting point of `Cc1cn(-c2cc(NC(=O)c3ccc(Cn4cnc5c(N)ncnc54)cc3)cc(C(F)(F)F)c2)cn1`
*A* 268 to 270 °C

*Q* # lookup: melting point of `COc1nc(Cl)nc2c1ncn2Cc1ccc(C(=O)Nc2cc(-n3cnc(C)c3)cc(C(F)(F)F)c2)cc1`
*A* 160 to 162 °C

*Q* # lookup: melting point of `Cc1cn(-c2cc(NC(=O)c3ccc(Cn4cnc5c(N)nc(F)nc54)cc3)cc(C(F)(F)F)c2)cn1`
*A* 230 to 232 °C

*Q* # lookup: melting point of `Nc1nc(F)nc2c1ncn2Cc1ccc(C(=O)Nc2cccc(C(F)(F)F)c2)cc1`
*A* 309 to 311 °C

*Q* # lookup: melting point of `COc1nc(Cl)nc2c1ncn2Cc1ccc(C(=O)Nc2cccc(C(F)(F)F)c2)cc1`
*A* 212 to 214 °C

====

System: K562 (chronic myelogenous leukemia)
assay.summary: MTT anti-proliferative assay, K562
Assay type: cell-based
conditions.used: Homo sapiens, 48 h
Measured pIC50 accompanies every entry in the list below.
Note on pIC50: it is the negative log10 of concentration, concentration in mol/L.

*Q* # lookup: pIC50 of O=C(Nc1cccc(C(F)(F)F)c1)c1ccc(Cn2cnc3c(Cl)nc(Cl)nc32)cc1 [Compound 7]
*A* 5.64

*Q* # lookup: pIC50 of COc1nc(Cl)nc2c1ncn2Cc1ccc(C(=O)Nc2cc(-n3cnc(C)c3)cc(C(F)(F)F)c2)cc1 [Compound 14]
*A* 4.56

*Q* # lookup: pIC50 of Cc1cn(-c2cc(NC(=O)c3ccc(Cn4cnc5c(Cl)nc(Cl)nc54)cc3)cc(C(F)(F)F)c2)cn1 [Compound 10]
*A* 5.60

*Q* # lookup: pIC50 of CNC(=O)c1cc(Oc2ccc(NC(=O)Nc3ccc(Cl)c(C(F)(F)F)c3)cc2)ccn1 [Sorafenib, sorafenib, reference compound]
*A* 5.54

====

assayed.target: PDGFRβ (Homo sapiens, UniProt P09619)
Construct: purchased Promega
assay.summary: Kinase Selectivity Profiling System TK-1 / ADP-Glo, PDGFRβ
Type: biochemical
quantity.name: inhibition at 1 µM (%)
Quick reminder: number only, in %, skip the unit.

Consider the worked cases shown below.
*Q* # lookup: inhibition at 1 µM of `COc1nc(Cl)nc2c1ncn2Cc1ccc(C(=O)Nc2cc(-n3cnc(C)c3)cc(C(F)(F)F)c2)cc1`
*A* 20

*Q* # lookup: inhibition at 1 µM of `Cc1cn(-c2cc(NC(=O)c3ccc(Cn4cnc5c(N)nc(Cl)nc54)cc3)cc(C(F)(F)F)c2)cn1`
*A* 6

*Q* # lookup: inhibition at 1 µM of `Cc1cn(-c2cc(NC(=O)c3ccc(Cn4cnc5c(N)nc(F)nc54)cc3)cc(C(F)(F)F)c2)cn1`
*A* 0

Now for the molecule whose inhibition at 1 µM we want.
*Q* # lookup: inhibition at 1 µM of `Nc1ncnc2c1ncn2Cc1ccc(C(=O)Nc2cccc(C(F)(F)F)c2)cc1`
*A* 36

====

assayed.target: PDGFRα (Homo sapiens, UniProt P16234)
Construct: purchased Promega
Sequence (P16234 24-1089): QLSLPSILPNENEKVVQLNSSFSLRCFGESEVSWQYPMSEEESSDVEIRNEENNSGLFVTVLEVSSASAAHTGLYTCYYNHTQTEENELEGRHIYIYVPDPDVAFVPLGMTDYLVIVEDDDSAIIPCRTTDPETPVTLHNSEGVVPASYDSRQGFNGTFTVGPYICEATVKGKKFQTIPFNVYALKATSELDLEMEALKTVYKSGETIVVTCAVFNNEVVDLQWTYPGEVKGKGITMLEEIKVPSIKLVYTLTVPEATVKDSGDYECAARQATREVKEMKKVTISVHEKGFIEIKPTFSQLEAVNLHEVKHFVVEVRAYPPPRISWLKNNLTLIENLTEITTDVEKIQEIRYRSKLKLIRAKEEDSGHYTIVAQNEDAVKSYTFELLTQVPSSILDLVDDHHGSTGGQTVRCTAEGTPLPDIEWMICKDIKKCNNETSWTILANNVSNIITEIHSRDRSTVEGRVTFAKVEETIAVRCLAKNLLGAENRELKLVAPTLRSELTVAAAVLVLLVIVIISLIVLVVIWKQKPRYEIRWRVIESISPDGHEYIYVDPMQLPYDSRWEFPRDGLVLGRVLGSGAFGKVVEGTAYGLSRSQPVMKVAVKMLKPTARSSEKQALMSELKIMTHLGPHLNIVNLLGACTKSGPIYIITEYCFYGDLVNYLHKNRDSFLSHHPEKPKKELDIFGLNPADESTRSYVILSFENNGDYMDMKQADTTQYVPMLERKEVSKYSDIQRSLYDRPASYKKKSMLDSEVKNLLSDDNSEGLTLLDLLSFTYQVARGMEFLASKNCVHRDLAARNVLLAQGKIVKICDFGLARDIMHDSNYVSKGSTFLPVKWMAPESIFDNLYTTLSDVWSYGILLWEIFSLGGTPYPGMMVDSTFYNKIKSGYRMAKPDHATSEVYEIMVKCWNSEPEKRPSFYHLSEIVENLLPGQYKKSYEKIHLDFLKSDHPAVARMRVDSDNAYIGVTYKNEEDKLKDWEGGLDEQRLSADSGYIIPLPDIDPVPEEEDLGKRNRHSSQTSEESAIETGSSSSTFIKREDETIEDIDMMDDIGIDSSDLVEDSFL
assay.summary: Kinase Selectivity Profiling System TK-1 / ADP-Glo, PDGFRα
Assay type: biochemical
Experimental: Considering the presence of a purine ring in the compounds under study, type 1 binding to protein kinases could be expected. […] Kinase activity was measured by quantifying the […] following a kinase reaction. Enzymatic activity inhibition percentage caused by studied compounds was evaluated at the single concentration of 1 μM. […]
quantity.name: inhibition at 1 µM (%)
Quick reminder: number only, in %, skip the unit.

Consider the worked cases shown below.
*Q* # lookup: inhibition at 1 µM of Nc1nc(F)nc2c1ncn2Cc1ccc(C(=O)Nc2cccc(C(F)(F)F)c2)cc1 [Compound 8]
*A* 13

*Q* # lookup: inhibition at 1 µM of Cc1cn(-c2cc(NC(=O)c3ccc(Cn4cnc5c(N)ncnc54)cc3)cc(C(F)(F)F)c2)cn1 [Compound 12]
*A* 22

*Q* # lookup: inhibition at 1 µM of Nc1nc(Cl)nc2c1ncn2Cc1ccc(C(=O)Nc2cccc(C(F)(F)F)c2)cc1 [Compound 15]
*A* 16

Next:
*Q* # lookup: inhibition at 1 µM of O=C(Nc1cccc(C(F)(F)F)c1)c1ccc(Cn2cnc3c(Cl)nc(Cl)nc32)cc1 [Compound 7]
*A* 40

The origin of these recorded values is paper PMC8657793.
